# Test system: L-M cells
# protocolDetails: NGF production and secretion by mouse L-M cells (NGF promoter activity), NGF level by enzyme immunoassay
# Type: cell-based
# testConditions: test compounds of this invention at 10 γ/ml, L-M cells, 24 hours, 37° C., read-out: % Control (NGF produced and secreted relative to cells not treated with the test compounds)

| compound | activity at 10 µg/mL (%) |
| --- | --- |
| Nc1cc(CCC(=O)NC2CCc3ccccc32)ccc1O (centres unmarked) | 315 |
| Nc1ccc(CCC(=O)NC23CC4CC(CC(C4)C2)C3)cc1N | 380 |
| Nc1ccc(CCC(=O)Nc2cnc3ccccc3c2)cc1N | 606 |
| Nc1ccc(CCC(=O)Nc2ccc(C(=O)c3ccccc3)cc2)cc1N | 491 |
| Nc1ccc(CCC(=O)N(c2ccccc2)c2ccccc2)cc1N | 276 |
